# assay_system: T1, human CD28 (human, UniProt P10747 19-220)
# T1 construct: whole, on cells; Jurkat/IL2 reporter cells, which endogenously express CD28
# protocol_description: flow cytometry MFI relative to WT CD80 IgV-Fc, Jurkat cells (CD28), 33.3 nM
measured_metric: Fold change to WT CD80 (fold)
Number in fold, nothing else.

| binder | numeric_readout |
| --- | --- |
| variant CD80 IgV-Fc (inert) H18V/E35D/M47V/V68M/A71G/D90G (Fc fusion, not shown: inert human IgG1 Fc) VIHVTKEVKEVATLSCGVNVSVEELAQTRIYWQKDKKMVLTMMSGDVNIWPEYKNRTIFDITNNLSIMILGLRPSDEGTYECVVLKYEKGAFKREHLAEVTLSVKAD | 20.7 |
| variant CD80 IgV-Fc (inert) H18Y/E35D/M47V/V68M/A71G (Fc fusion, Fc fusions are dimeric by the general description; not shown: inert human IgG1 Fc) VIHVTKEVKEVATLSCGYNVSVEELAQTRIYWQKDKKMVLTMMSGDVNIWPEYKNRTIFDITNNLSIMILGLRPSDEGTYECVVLKYEKDAFKREHLAEVTLSVKAD | 31.6 |

// query For variant CD80 IgV-Fc (inert) H18I/A26P/E35D/M47V/V68M/A71G (Fc fusion, not shown: inert human IgG1 Fc) VIHVTKEVKEVATLSCGINVSVEELPQTRIYWQKDKKMVLTMMSGDVNIWPEYKNRTIFDITNNLSIMILGLRPSDEGTYECVVLKYEKDAFKREHLAEVTLSVKAD , write its Fold change to WT CD80.
// result 25.2

// query For variant CD80 IgV-Fc (inert) H18L/E35D/M47V/V68M/A71G/D90G (Fc fusion, not shown: inert human IgG1 Fc) VIHVTKEVKEVATLSCGLNVSVEELAQTRIYWQKDKKMVLTMMSGDVNIWPEYKNRTIFDITNNLSIMILGLRPSDEGTYECVVLKYEKGAFKREHLAEVTLSVKAD , write its Fold change to WT CD80.
// result 62.2

// query For variant CD80 IgV-Fc (inert) H18C/A26P/E35D/M47L/V68M/A71G (Fc fusion, not shown: inert human IgG1 Fc) VIHVTKEVKEVATLSCGCNVSVEELPQTRIYWQKDKKMVLTMMSGDLNIWPEYKNRTIFDITNNLSIMILGLRPSDEGTYECVVLKYEKDAFKREHLAEVTLSVKAD , write its Fold change to WT CD80.
// result 18.7

// query For variant CD80 IgV-Fc (inert) H18Y/A26P/E35D/M47I/V68M/A71G (Fc fusion, not shown: inert human IgG1 Fc) VIHVTKEVKEVATLSCGYNVSVEELPQTRIYWQKDKKMVLTMMSGDINIWPEYKNRTIFDITNNLSIMILGLRPSDEGTYECVVLKYEKDAFKREHLAEVTLSVKAD , write its Fold change to WT CD80.
// result 50.2

// query For variant CD80 IgV-Fc (inert) H18F/A26N/E35D/M47V/V68M/A71G/D90K (Fc fusion, not shown: inert human IgG1 Fc) VIHVTKEVKEVATLSCGFNVSVEELNQTRIYWQKDKKMVLTMMSGDVNIWPEYKNRTIFDITNNLSIMILGLRPSDEGTYECVVLKYEKKAFKREHLAEVTLSVKAD , write its Fold change to WT CD80.
// result 31.1

// query For variant CD80 IgV-Fc (inert) H18V/A26P/E35D/M47L/V68M/A71G (Fc fusion, not shown: inert human IgG1 Fc) VIHVTKEVKEVATLSCGVNVSVEELPQTRIYWQKDKKMVLTMMSGDLNIWPEYKNRTIFDITNNLSIMILGLRPSDEGTYECVVLKYEKDAFKREHLAEVTLSVKAD , write its Fold change to WT CD80.
// result 24

// query For variant CD80 IgV-Fc (inert) H18V/A26K/E35D/M47L/V68M/A71G (Fc fusion, not shown: inert human IgG1 Fc) VIHVTKEVKEVATLSCGVNVSVEELKQTRIYWQKDKKMVLTMMSGDLNIWPEYKNRTIFDITNNLSIMILGLRPSDEGTYECVVLKYEKDAFKREHLAEVTLSVKAD , write its Fold change to WT CD80.
// result 35.7

// query For variant CD80 IgV-Fc (inert) H18L/A26N/D46E/V68M/A71G/D90G (Fc fusion, not shown: inert human IgG1 Fc) VIHVTKEVKEVATLSCGLNVSVEELNQTRIYWQKEKKMVLTMMSGEMNIWPEYKNRTIFDITNNLSIMILGLRPSDEGTYECVVLKYEKGAFKREHLAEVTLSVKAD , write its Fold change to WT CD80.
// result 71.1

// query For variant CD80 IgV-Fc (inert) H18T/A26N/E35D/M47L/V68M/A71G (Fc fusion, not shown: inert human IgG1 Fc) VIHVTKEVKEVATLSCGTNVSVEELNQTRIYWQKDKKMVLTMMSGDLNIWPEYKNRTIFDITNNLSIMILGLRPSDEGTYECVVLKYEKDAFKREHLAEVTLSVKAD , write its Fold change to WT CD80.
// result 13.4
